measured-target: SMARCA4 (Homo sapiens)
Construct: endogenous in cells
Sequence (P51532 whole entry, species assumed): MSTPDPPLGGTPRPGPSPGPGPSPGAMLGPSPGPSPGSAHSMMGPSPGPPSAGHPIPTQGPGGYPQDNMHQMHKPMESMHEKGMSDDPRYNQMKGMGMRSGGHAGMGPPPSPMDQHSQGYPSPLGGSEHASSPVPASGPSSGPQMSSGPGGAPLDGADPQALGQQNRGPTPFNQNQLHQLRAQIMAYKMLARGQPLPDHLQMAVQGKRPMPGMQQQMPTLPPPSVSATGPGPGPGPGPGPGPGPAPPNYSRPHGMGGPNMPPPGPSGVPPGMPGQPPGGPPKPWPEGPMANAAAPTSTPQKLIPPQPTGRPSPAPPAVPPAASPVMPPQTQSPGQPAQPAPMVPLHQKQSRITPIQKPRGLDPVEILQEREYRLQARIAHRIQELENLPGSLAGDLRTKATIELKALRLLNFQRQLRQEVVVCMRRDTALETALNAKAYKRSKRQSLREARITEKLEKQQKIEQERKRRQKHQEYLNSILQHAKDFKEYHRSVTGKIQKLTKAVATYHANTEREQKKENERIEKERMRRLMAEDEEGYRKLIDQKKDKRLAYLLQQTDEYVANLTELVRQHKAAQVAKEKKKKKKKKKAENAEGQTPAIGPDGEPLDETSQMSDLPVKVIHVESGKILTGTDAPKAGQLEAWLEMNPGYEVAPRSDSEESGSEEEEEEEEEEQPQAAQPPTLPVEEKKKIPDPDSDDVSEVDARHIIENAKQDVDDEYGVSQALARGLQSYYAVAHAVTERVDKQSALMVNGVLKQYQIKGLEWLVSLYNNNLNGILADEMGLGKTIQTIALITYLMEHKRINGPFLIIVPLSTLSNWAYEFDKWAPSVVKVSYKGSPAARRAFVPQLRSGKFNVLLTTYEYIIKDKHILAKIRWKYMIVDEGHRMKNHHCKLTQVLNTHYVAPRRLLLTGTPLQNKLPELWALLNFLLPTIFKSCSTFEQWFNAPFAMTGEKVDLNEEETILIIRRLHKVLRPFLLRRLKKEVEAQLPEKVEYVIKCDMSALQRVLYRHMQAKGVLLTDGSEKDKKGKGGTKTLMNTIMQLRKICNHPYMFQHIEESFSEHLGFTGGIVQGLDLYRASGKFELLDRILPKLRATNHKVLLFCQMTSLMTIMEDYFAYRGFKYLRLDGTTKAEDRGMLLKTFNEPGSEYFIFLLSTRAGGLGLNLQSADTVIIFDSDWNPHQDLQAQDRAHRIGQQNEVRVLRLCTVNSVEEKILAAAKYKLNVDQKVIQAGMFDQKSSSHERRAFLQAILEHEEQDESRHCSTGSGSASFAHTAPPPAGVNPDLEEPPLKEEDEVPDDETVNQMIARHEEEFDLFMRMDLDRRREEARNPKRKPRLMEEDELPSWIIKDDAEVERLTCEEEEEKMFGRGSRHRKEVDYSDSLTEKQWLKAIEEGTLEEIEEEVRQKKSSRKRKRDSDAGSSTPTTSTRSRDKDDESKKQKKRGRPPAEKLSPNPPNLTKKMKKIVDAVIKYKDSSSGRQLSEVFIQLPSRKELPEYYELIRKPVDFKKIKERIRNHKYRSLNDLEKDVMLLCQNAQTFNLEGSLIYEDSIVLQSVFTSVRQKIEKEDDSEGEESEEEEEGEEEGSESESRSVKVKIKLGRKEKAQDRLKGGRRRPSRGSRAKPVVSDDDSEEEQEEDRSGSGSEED
experiment: Cellular degradation assay, SMARCA4 (Table 1)
Type: cell-based
observation-type: Dmax (%)

A selection of reference data follows.
compound=CN(C(=O)C1(OC2CC2)CCN(c2cnnc(-c3ccccc3O)c2)CC1)C1CCN(CC2CCN(c3ccc([C@H]4CCC(=O)NC4=O)cc3)CC2)CC1 observation_type=Dmax quantitative_result=49.9
compound="CCN(C(=O)C1(c2ccccc2)CCN(c2cnnc(-c3ccccc3O)c2)CC1)C1CCN(C(=O)CN2CCN(c3ccc(C4CCC(=O)NC4=O)cc3)CC2)CC1 (racemic)" observation_type=Dmax quantitative_result=58.5

[P] CN(C(=O)C1(c2cnn(C)c2)CCN(c2cnnc(-c3ccccc3O)c2)CC1)C1CCN(CCC2CCN(c3ccc(C4CCC(=O)NC4=O)cc3)CC2)CC1 (racemic)
[Q] CN(CC1(c2ccccc2)CCN(c2cnnc(-c3ccccc3O)c2)CC1)C1CCN(C(=O)CN2CCC(c3ccc(C4CCC(=O)NC4=O)cc3)CC2)CC1 (racemic)
From the items above, decide which of P and Q has the lower Dmax reading. Reply with the label of the item you choose.
P
